The binders listed here are annotated with their ELISA signal.
Molecular target: REFACTO® (recombinant factor VIII-like polypeptide consisting of amino acids 1-743 and 1638 through 2332 of human factor VIII) (human) (UniProt P00451)
Sequence (P00451 20-762, chain 1 of 2): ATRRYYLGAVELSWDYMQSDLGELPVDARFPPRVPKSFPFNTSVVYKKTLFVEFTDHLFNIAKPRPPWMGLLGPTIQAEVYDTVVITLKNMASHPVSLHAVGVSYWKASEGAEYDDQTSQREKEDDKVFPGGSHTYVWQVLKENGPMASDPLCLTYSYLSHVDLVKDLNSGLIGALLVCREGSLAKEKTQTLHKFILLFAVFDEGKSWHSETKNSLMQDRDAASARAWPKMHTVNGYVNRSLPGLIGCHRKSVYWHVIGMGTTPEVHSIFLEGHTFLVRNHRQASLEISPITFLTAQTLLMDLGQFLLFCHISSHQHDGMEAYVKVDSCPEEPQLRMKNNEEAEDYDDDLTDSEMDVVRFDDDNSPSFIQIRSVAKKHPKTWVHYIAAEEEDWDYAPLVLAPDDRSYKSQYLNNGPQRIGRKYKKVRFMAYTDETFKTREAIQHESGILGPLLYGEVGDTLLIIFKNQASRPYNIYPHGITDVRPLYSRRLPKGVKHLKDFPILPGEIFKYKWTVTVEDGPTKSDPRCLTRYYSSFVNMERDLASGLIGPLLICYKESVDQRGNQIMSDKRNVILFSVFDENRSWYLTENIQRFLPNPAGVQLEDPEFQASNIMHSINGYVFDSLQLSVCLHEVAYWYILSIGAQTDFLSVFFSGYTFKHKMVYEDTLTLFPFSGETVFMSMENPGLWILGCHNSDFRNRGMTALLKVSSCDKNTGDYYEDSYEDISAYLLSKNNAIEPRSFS
Sequence (P00451 1657-2351, chain 2 of 2): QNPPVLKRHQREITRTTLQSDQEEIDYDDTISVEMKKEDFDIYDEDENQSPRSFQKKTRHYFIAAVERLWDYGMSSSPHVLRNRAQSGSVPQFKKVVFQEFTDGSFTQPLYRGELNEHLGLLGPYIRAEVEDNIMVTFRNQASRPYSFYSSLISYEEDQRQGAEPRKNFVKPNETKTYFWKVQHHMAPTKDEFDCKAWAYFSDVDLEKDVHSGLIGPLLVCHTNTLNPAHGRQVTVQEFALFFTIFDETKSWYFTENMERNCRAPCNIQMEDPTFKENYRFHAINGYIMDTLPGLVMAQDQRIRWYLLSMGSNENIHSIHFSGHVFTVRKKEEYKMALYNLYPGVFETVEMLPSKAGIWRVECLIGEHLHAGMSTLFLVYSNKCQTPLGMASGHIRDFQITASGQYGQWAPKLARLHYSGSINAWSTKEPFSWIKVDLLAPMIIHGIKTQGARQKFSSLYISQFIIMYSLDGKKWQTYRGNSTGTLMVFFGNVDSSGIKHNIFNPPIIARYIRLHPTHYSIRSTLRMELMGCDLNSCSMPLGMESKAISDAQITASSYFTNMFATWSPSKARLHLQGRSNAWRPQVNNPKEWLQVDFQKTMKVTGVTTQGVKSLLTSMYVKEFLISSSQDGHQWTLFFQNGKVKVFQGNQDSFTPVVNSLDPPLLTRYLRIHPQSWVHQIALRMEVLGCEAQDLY
Test: phage ELISA on the factor VIII target (REFACTO), anti-M13-HRP
Response body: numeric value in OD630, unit text excluded.

Worked examples follow.
>>> reported_value("FCWVFPFNHCS [TN9 phage isolate 12 (SEQ ID NO: 28)]")
1
>>> reported_value("FCWVFPFQHCA [TN9 phage isolate 09 (E09-TN9)]")
1.1
>>> reported_value("HRCGSWLHPCLA [TN8 phage isolate 11/G10 (A11/G10-TN8)]")
0.3

For FCHVFHFSHCD [TN9 phage isolate 01 (SEQ ID NO: 24)] , what is its reported ELISA signal?
0.2
